assay: in vitro; settings: human, HepG2-A16-CD81EGFP cells, uninfected
Listed below: viability at 48 h, 1 µM values for each entry.
Write the answer as a number in %, unit excluded.

COMPOUND | UNIT | viability at 48 h, 1 µM
CCCN(CCC)c1nc(-c2ccccn2)nc2ccccc12 [MLS001165172-01] | % | 112
Cc1cc(Nc2cccc(F)c2)nc(NCc2ccccc2)n1 [MLS000589387-01] | % | 98
CCSc1nc2sc3c(c2c(=O)n1-c1ccccc1)CCN(C)C3 [MLS001212076-01] | % | 104
CC(C)C(=O)N1Cc2ccccc2CC2(CCCN(CC3CCCCC3)C2)C1 (stereo not drawn) [NCGC00377456-01] | % | 100
CCCCCNc1nc2sc3c(c2c(=O)n1-c1cccc(Cl)c1)CCN(C)C3 [MLS000762913-01] | % | 92
CCCCNc1nc2sc3c(c2c(=O)n1-c1cccc(Cl)c1)CCN(C)C3 [MLS000762857-01] | % | 106
CN1c2cc(C(=O)Nc3ccc(C(F)(F)F)cc3)ccc2C(=O)N2CCCCC21 (stereo not drawn) [NCGC00452394-01] | % | 104
Cn1c(S)nc2sc3c(c2c1=O)CCC(C(C)(C)C)C3 (stereo not drawn) [MLS001198408-01] | % | 97

Now let's try a different one.
The compound identified as CCC(=O)N(C1=C(NC(C)C)C(=O)c2ccccc2C1=O)C(C)C [MLS000696323-01] registered its viability at 48 h, 1 µM at 106

###

assay: in vitro; settings: human, hepg2-a16-cd81egfp cells, % viability
REPORTED_METRIC: viability at 3 µM (%)
A number alone suffices; assume %.

Below, 5 compounds whose answers are already recorded.
STRUCTURE_STRING | VALUE
N=c1ccn(CC(=O)c2ccc(-c3ccccc3)cc2)cc1 | 53.4
O=C1C(Nc2ccccc2)=C/C(=N\S(=O)(=O)c2cccs2)c2ccccc21 | 86
CN1C2CCC1/C(=C/c1ccccn1)C(=O)/C2=C\c1ccccn1 | 83
CC(=O)Nc1ccc(Nc2cc(C)nc(Nc3ccc(NC(C)=O)cc3)n2)cc1 | 93.2
COc1cc2nc(Nc3ccc(C)c(C)c3)nc(N)c2cc1OC | 102

# viability at 3 µM of `COc1ccccc1-c1cc(C(=O)N2CCN(S(=O)(=O)c3ccc(C)cc3)CC2)[nH]n1` = 96.6

# viability at 3 µM (compound: `O=C(CCl)Nc1ccc(Oc2cnc3ccccc3n2)cc1` ) is 90.9

Kindly note the recorded viability at 3 µM for `COc1ccc(OC)c(-n2c(-c3cccc(O)c3)n[nH]c2=S)c1` , which is 93.1

Record `COc1ccc(Nc2cc(C)c3ccc(O)cc3n2)cc1` . Reported viability at 3 µM: 96.2

###

system: HepG2-A16-CD81EGFP cells; settings: human, 48 h, 1 µM
REPORTED_METRIC: HepG2 viability signal, 1 uM, repeat 2 (%)
Give the value in % but do not write % after it.

# example entries with known answers
STRUCTURE_STRING | VALUE
CCC(CC)c1cc([C@H]2CN3CC[C@H]2C[C@@H]3CN[S+](=O)([O-])c2cccs2)nc(-c2ccncc2)n1 | 98.83
COc1ccc(-c2cc([C@H]3CN4CC[C@H]3C[C@@H]4CN[S+](=O)([O-])c3ccc(Cl)cc3)n(C)n2)cc1OC | 102.24
COc1cc2c(cc1OCc1ccccc1)N(C(=O)c1cc3ccccc3[nH]1)CC21CCN(C)CC1 | 101.97
COc1cccc([C@@H]2CCN(Cc3[nH]c4ccccc4c3C)C[C@H]2O)c1 | 93.46
CCC(CC)c1cc([C@H]2CN3CC[C@H]2C[C@@H]3CN[S+](=O)([O-])c2ccccc2C#N)nc(-c2ccncc2)n1 | 105.19
COc1cc2c(cc1Oc1cccc(N(C)C)c1)NC(=O)C21CCN(c2cnccn2)CC1 | 94.98

Then this molecule:
Data point: `O=C(Nc1ccccc1)OC[C@H]1C[C@@H]2CCN1C[C@@H]2c1cc(C2CCCC2)nc(-c2ccncc2)n1` ; HepG2 viability signal, 1 uM, repeat 2 = 103.60
